targetUnderTest: human ghrelin receptor (hGHS-R1a) (Homo sapiens)
Construct: purchased PerkinElmer BioSignal RBHGHSM, lot#1887; host or cells: HEK-293 cells, stably transfected (membranes GHS-R/HEK 293)
Sequence (Q92847 whole entry): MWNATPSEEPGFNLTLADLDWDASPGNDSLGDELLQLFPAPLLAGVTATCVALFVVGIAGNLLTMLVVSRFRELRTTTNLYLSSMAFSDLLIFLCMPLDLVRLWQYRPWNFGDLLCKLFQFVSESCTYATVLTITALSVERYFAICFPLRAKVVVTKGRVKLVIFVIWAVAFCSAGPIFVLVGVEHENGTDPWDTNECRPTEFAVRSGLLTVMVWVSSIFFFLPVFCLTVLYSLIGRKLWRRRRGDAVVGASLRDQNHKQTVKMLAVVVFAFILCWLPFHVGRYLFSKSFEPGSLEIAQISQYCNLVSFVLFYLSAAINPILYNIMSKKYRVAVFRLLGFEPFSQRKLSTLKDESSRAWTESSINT
assayOverview: Competitive radioligand binding assay (ghrelin receptor), Method B2
setupConditions: [125I]-ghrelin competition, HEK-293 cell membranes
assayMetric: Ki

The following molecules have reported results that may help.
C[C@@H]1C(=O)N[C@H](Cc2ccc(F)cc2)C(=O)NCCOc2cccc(c2)OCCN[C@@H](C2CC2)C(=O)N1C [Compound 149] : 100 to 1000 nM
C[C@@H]1C(=O)N[C@H](Cc2ccc(F)cc2)C(=O)NCCOCCOCCN[C@@H](C2CC2)C(=O)N1C [Compound 140] : 1000 to 10000 nM
CCC[C@H]1C(=O)N(C)[C@H](C)C(=O)N[C@H](Cc2ccccc2)C(=O)NCCCc2ccccc2OCCN1C [Compound 167] : 100 to 1000 nM
CCC(C)[C@@H]1NCCOc2ccccc2CCCNC(=O)[C@@H](Cc2ccccc2)NC(=O)[C@@H](C(C)CC)N(C)C1=O (some centres unmarked) [Compound 136] : 1000 to 10000 nM
CCC(C)[C@@H]1NCCOc2ccccc2CCCNC(=O)[C@@H](Cc2ccccc2)NC(=O)[C@H](C(C)C)N(C)C1=O (some centres unmarked) [Compound 131] : 100 to 1000 nM
CN1CC(=O)N[C@H](Cc2ccccc2)C(=O)NCCCc2ccccc2OCCN[C@@H](CCCCN)C1=O [Compound 127] : 1000 to 10000 nM
CCC(C)[C@@H]1NCCOc2ccccc2CCCNC(=O)[C@@H](Cc2ccccc2)NC(=O)[C@H](C(C)CC)N(C)C1=O (some centres unmarked) [Compound 138] : 100 to 1000 nM
CCC[C@@H]1NCc2cccc(c2)CNC(=O)[C@@H](Cc2ccccc2)NC(=O)CN(C)C1=O [Compound 158] : 1000 to 10000 nM
CCC(C)[C@@H]1NCCOc2ccccc2/C=C/CNC(=O)N(Cc2ccccc2)NC(=O)[C@@H](C)N(C)C1=O (some centres unmarked) [Compound 165] : 10 to 100 nM
CN1CC(=O)N[C@H](Cc2ccccc2)C(=O)NCCCc2ccccc2OCCN[C@@H](Cc2ccccc2)C1=O [Compound 128] : 100 to 1000 nM

## Input Field: Ki (human ghrelin receptor (hGHS-R1a) (Homo sapiens)). Entry: C[C@@H]1NCCOc2ccccc2CCCNC(=O)[C@@H](Cc2ccccc2)NC(=O)CN(C)C1=O [Compound 124]
## Output 1000 to 10000 nM

* * *

Consider the following molecules; for each one, report its Ki.
targetUnderTest: human motilin receptor (Homo sapiens, UniProt O43193)
Construct: purchased PerkinElmer (SignalScreen) 6110544; host or cells: CHO cells, stably transfected (membranes)
Sequence (O43193 whole entry): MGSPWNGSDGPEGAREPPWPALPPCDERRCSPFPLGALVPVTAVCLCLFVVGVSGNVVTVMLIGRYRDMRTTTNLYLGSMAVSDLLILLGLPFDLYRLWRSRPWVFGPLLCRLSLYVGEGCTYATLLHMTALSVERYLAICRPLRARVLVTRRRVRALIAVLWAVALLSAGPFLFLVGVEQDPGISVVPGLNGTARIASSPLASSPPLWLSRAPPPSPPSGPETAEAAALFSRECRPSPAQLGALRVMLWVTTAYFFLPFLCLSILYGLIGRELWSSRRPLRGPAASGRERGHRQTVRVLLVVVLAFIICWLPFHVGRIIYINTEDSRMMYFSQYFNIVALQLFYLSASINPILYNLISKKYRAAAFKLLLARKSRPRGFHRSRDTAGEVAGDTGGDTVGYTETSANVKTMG
assayOverview: Competitive radioligand binding assay (motilin receptor), Method B1
setupConditions: [125I]-motilin competition, CHO cell membranes

CC(C)C[C@H]1C(=O)NCCCc2ccccc2OCCN[C@H](Cc2ccc(O)cc2)C(=O)N[C@H](C(C)C)C(=O)N1C [Compound 116] : 100 to 1000 nM
CCC[C@@H]1/C=C/[C@@H](C(C)C)NC(=O)[C@@H](Cc2cccc(Cl)c2)NCCOc2ccccc2CCCNC1=O [Compound 104] : 1000 to 10000 nM

I need Ki for every entry listed below, if you could help.
1. CCC[C@@H]1NC(=O)[C@@H](C(C)C)OC(=O)[C@@H](Cc2ccc(O)cc2)NCCOc2ccccc2CCCNC1=O [Compound 119]
2. CCC[C@@H]1NC(=O)C(C(C)C)OC(=O)[C@@H](Cc2ccc(OC)cc2)NCCOc2ccccc2CCCNC1=O (some centres unmarked) [Compound 112]
3. CCC[C@@H]1NC(=O)[C@@H](C(C)C)CC[C@@H](Cc2ccc(OC)cc2)NCCOc2ccccc2CCCNC1=O [Compound 109]
4. CCC[C@@H]1NC(=O)C(C(C)C)CC[C@@H](Cc2ccc(OC)cc2)NCCOc2ccccc2CCCNC1=O (some centres unmarked) [Compound 110]
5. CCC[C@@H]1CC[C@@H](C(C)C)NC(=O)[C@@H](Cc2cccc(Cl)c2)NCCOc2ccccc2CCCNC1=O [Compound 103]

## Output
["100 to 1000 nM", "100 to 1000 nM", "100 to 1000 nM", "1000 to 10000 nM", "1000 to 10000 nM"]

I need Ki for every entry listed below, if you could help.
1. CC(C)[C@H]1CC[C@@H](Cc2cccc(Cl)c2)NCCOc2ccccc2CCCNC(=O)[C@H](CNC(=N)N)NC1=O [Compound 101]
2. CCC[C@@H]1NC(=O)[C@@H](C(C)C)OC(=O)[C@@H](Cc2cccc3ccccc23)NCCOc2ccccc2CCCNC1=O [Compound 111]

## Output
1: 10 to 100 nM; 2: 100 to 1000 nM

I need Ki for every entry listed below, if you could help.
1. CCC[C@@H]1NC(=O)[C@@H](C(C)C)/C=C/[C@@H](Cc2ccc(OC)cc2)NCCOc2ccccc2CCCNC1=O [Compound 105]
2. CCC[C@@H]1NC(=O)[C@@H](C(C)C)NC(=O)[C@@H](Cc2ccc(O)cc2)NCCOc2ccccc2CCCOC1=O [Compound 115]

## Output
["1000 to 10000 nM", "1000 to 10000 nM"]
